# Tested on: HIPK2
# run parameters: concentration: 1 μM,replicates: in singlicate; n = 1;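 note: KINOMEscan kinase panel screen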
measured endpoint: %Inh (%)

>>> print(df.to_string())
                                    molecule  unit_string  result
 0  COc1cc2c(Nc3ccc(NC(=O)c4ccccc4)cc3)ncnc2cc1OCCCN1CCOCC1            %       0
 1  Cc1ccc(C(=O)Nc2ccc(Oc3ccc4nc(NC(=O)C5CC5)cn4c3)c(F)c2)c(=O)n1-c1ccccc1            %       0
 2  C[C@@H]1CCN(C(=O)N2CCCC2)C[C@@H]1N(C)c1ncnc2[nH]ccc12            %       0
 3  O=C(Nc1cccc(C(F)(F)F)c1)c1cccc(Oc2ccc3nccn3n2)c1            %       8
 4  Cc1ccn2nc(-c3ccc(F)cc3)c(-c3ccncc3)c2c1.Cl            %       0
 5    O=C(Nc1ccccc1)c1cccc(Oc2ccc3nccn3n2)c1            %       0
 6  COc1cccc(CNC(=O)NC2CCN(c3ccnc(Nc4cc(OC)c(OC)c(OC)c4)n3)C2)c1 (stereo not shown)            %      34
 7  CCN1CCN(CCCC(=O)Nc2n[nH]c3nc(-c4ccc(O)cc4)c(Br)cc23)CC1            %      57
 8  CS(=O)c1ccc(-c2coc3ccc(-c4n[nH]c(=O)o4)cc23)cc1 (stereo not shown)            %     100
 9  Cc1ccc(CC(=O)N2CCc3cc(-c4cn(C)c5ncnc(N)c45)ccc32)cc1            %       0
10  COc1ccc(Nc2nccc(N3CCC(NC(=O)c4cccc(C#N)c4)C3)n2)cc1 (stereo not shown)            %       0
11                 CCCC(=O)Nc1n[nH]c2ncccc12            %       0
12  Cn1ccc2ncnc(Oc3ccc(NC(=O)Nc4cnn(C(C)(C)C)c4)c(Cl)c3)c21            %      16
13  CN1CCN(CCCNc2nccc(-c3c(-c4ccc(F)cc4)nn4cc(C(N)=O)ccc34)n2)CC1            %       0
14  COc1cc2ncn(-c3cc(OCC4CCCCC4)c(C(N)=O)s3)c2cc1OC            %       0
15  C[C@@H](Oc1cc(-n2cnc3cc(-c4cnn(C)c4)ccc32)sc1C(N)=O)c1ccccc1Cl            %       0

====

# Tested on: PIKFYVE
# run parameters: concentration: 1 μM,replicates: in singlicate; n = 1
measured endpoint: %Inh (%)

>>> print(df.to_string())
                                   compound  measured_endpoint  result
0  CCn1c(-c2nonc2N)nc2cncc(CNC3CCNCC3)c21.Cl [SB-747651]               %Inh       0
1  COc1cccc(OC)c1C(=O)Nc1cccc(-c2nn3ccccc3c2-c2ccnc(Nc3cccc(F)c3)n2)c1 [GSK361065]               %Inh      42
2  C[C@@H](Oc1cc(-n2cnc3cc(-c4ccncc4)ccc32)sc1C(N)=O)c1ccccc1Cl [GSK479719]               %Inh      27
3  C[C@@H](Oc1cc(-n2cnc3ccc(-c4ccncc4)cc32)sc1C(N)=O)c1ccccc1Cl [GSK483724]               %Inh    95.1
4             O=C1NCCc2[nH]c(-c3ccncc3)cc21               %Inh      38
5  COc1cc(Nc2nccc(N3CCC(NC(=O)c4cccc(C#N)c4)C3)n2)cc(OC)c1OC (stereo not drawn) [GSK1379751]               %Inh       9
6  Cl.c1ccc(Oc2ccc(Nc3ccnc4cc(-c5ccc(CN6CCNCC6)o5)ccc34)cc2)nc1 [GW567142]               %Inh       0
7  Cl.Nc1n[nH]c2cc(-c3ccccn3)ccc12 [GSK2189892]               %Inh       0
8  CN1CCN(CCNc2nc3cc(Oc4ccc(NC(=O)Nc5cc(C(F)(F)F)ccc5F)cc4)ccc3[nH]2)CC1.Cl.Cl [GW768504]               %Inh       0

====

# Tested on: FLT3-autoinhibited
# run parameters: concentration: 1 μM,replicates: in singlicate; n = 1
Overview of recorded %Inh for various compounds
measured endpoint: %Inh

>>> df
                                    compound         test_target  result
 0  CN1CCN(CCCNc2nccc(-c3c(-c4ccc(F)cc4)nn4cc(C(N)=O)ccc34)n2)CC1  FLT3-autoinhibited      1%
 1             O=C1NCCc2[nH]c(-c3ccncc3)cc21  FLT3-autoinhibited     12%
 2  C[C@@H]1CNc2c(sc3ccc4nc(-c5ccc(O)cc5)ccc4c23)C(=O)N1  FLT3-autoinhibited      6%
 3  C[C@@H](Oc1cc(-n2cnc3cc(-c4cnn(C)c4)ccc32)sc1C(N)=O)c1ccccc1Cl  FLT3-autoinhibited     28%
 4  CNC(=O)c1ccccc1Nc1nc(Nc2cccc(CS(C)(=O)=O)c2)ncc1C.O=CO  FLT3-autoinhibited     89%
 5  CS(=O)c1ccc(-c2coc3ccc(-c4n[nH]c(=O)o4)cc23)cc1 (centres unmarked)  FLT3-autoinhibited      0%
 6  COc1cc2c(Nc3ccc(NC(=O)c4ccccc4)cc3)ncnc2cc1OCCCN1CCOCC1  FLT3-autoinhibited      0%
 7  CN(c1cccc(CNc2nc(Nc3ccc4c(c3)CC(=O)N4)ncc2C(F)(F)F)c1)S(C)(=O)=O  FLT3-autoinhibited     39%
 8  Cn1ccc2ncnc(Oc3ccc(NC(=O)Nc4cccc(C(F)(F)F)c4)c(Cl)c3)c21  FLT3-autoinhibited      0%
 9  COc1cc2nccc(Nc3ccc(Oc4ccccc4)cc3)c2cc1OC.Cl  FLT3-autoinhibited      0%
10  FC(F)(F)c1cc(Br)cc(Nc2nccc(-c3cnn4ncccc34)n2)c1  FLT3-autoinhibited     70%
11  C[C@@H]1CNc2c(sc3ccc4nc(-c5ccncc5)ccc4c23)C(=O)N1  FLT3-autoinhibited      0%
12  Cc1ccc2c(-c3ccnc(Nc4ccc(C(F)(F)F)cc4)n3)cnn2n1  FLT3-autoinhibited      0%
13  COC(=O)c1cccc(NC(=O)NC2CCN(c3ccnc(Nc4cc(OC)c(OC)c(OC)c4)n3)C2)c1 (centres unmarked)  FLT3-autoinhibited      4%

====

# System: AKT1
# run parameters: concentration: 1 μM,replicates: in singlicate; n = 1
Each item that follows carries a reported %Inh.
measured endpoint: %Inh (%)

                                    molecule  result
 0                 CCCC(=O)Nc1n[nH]c2ncccc12       0
 1  Cn1ccc2ncnc(Oc3ccc(NC(=O)Nc4ccnc(C(F)(F)F)c4)c(Cl)c3)c21       7
 2      Cc1cccc(-c2nc(Nc3ccncc3)c3sccc3n2)n1       5
 3  CSc1nccc(-c2c(-c3ccc(F)cc3)ncn2CCCN2CCOCC2)n1.Cl      14
 4  CS(=O)c1ccc(-c2coc3ccc(-c4n[nH]c(=O)o4)cc23)cc1 (stereo not drawn)       0
 5  COc1cc2nccc(Nc3ccc(Oc4ccccc4)cc3)c2cc1OC.Cl       0
 6        NC(=O)Nc1sc(-c2ccc(F)cc2)cc1C(N)=O       0
 7  Cl.Cl.NC[C@H](CC1CCCCC1)NC(=O)c1ccc(-c2ccnc3[nH]ccc23)s1    94.1
 8    CS(=O)(=O)Nc1ccc(-c2ccnc3[nH]ccc23)cc1       0
 9  OCCn1cc(-c2cnc3nnn(Cc4ccc5ncccc5c4)c3n2)cn1       0
10  COc1cccc(C2=C(Nc3cccc(Cl)c3)C(=O)NC2=O)c1       0
11  CCOC(=O)N1CCC(n2cnc(-c3ccc(F)cc3)c2-c2ccnc(N)n2)CC1       7
12  COc1cc2ncn(-c3cc(OCC4CCCCC4)c(C(N)=O)s3)c2cc1OC       0
13  Cn1ccc2ncnc(Oc3ccc(NC(=O)Nc4cccc(C(F)(F)F)c4)c(Cl)c3)c21       0
14  O=C(NCC1CC1)c1ccc(-c2cc(C(=O)NC3CC3)ccc2F)cc1      24
15  CCN1CCN(CCCC(=O)Nc2n[nH]c3nc(-c4ccc(O)cc4)c(Br)cc23)CC1       0
16  O=C(Nc1ccc(Oc2ccc3nc(NC(=O)C4CC4)cn3n2)c(F)c1)c1cccn(-c2ccccc2)c1=O      18
17  Cc1ccc(CC(=O)N2CCc3cc(-c4cn(C)c5ncnc(N)c45)ccc32)cc1       0
18  O=C(Nc1cccc(C(F)(F)F)c1)c1cccc(Oc2ccc3nccn3n2)c1       0
19  COc1cccc(OC)c1C(=O)Nc1cccc(-c2nn3ccccc3c2-c2ccnc(Nc3cccc(F)c3)n2)c1       4
20      Cn1cc(-c2cccc3c(N)c(C(N)=O)nnc23)cn1       0
21  C[C@@H]1CNc2c(sc3ccc4nc(-c5ccncc5)ccc4c23)C(=O)N1       0
22  O=C(Nc1cccc(Oc2ccc3nccn3n2)c1)Nc1cccc(C(F)(F)F)c1       0
23  NC(=O)c1ccc(-c2cc3ncnc(SCC(=O)O)c3s2)cc1       0
24  CN1CCN(CCCNc2nccc(-c3c(-c4ccc(F)cc4)nn4cc(C(N)=O)ccc34)n2)CC1       0
25  Cn1ccc2ncnc(Oc3ccc(NC(=O)Nc4cncc(C(F)(F)F)c4)c(Cl)c3)c21       6
26  CNC(=O)c1ccccc1Nc1nc(Nc2cccc(CS(C)(=O)=O)c2)ncc1C.O=CO       0
27  FC(F)(F)c1cc(Br)cc(Nc2nccc(-c3cnn4ncccc34)n2)c1       6
28  COC(=O)c1cccc(NC(=O)NC2CCN(c3ccnc(Nc4cc(OC)c(OC)c(OC)c4)n3)C2)c1 (stereo not drawn)       0
29  CC(C)S(=O)(=O)N1CCN(Cc2ccc3c(c2)nc(NC(=O)c2ccsc2)n3C[C@H](O)c2ccccc2)CC1       0
30  CCn1c(-c2nonc2N)nc2cncc(CNC3CCNCC3)c21.Cl      72
31  C[C@@H]1CCN(C(=O)N2CCCC2)C[C@@H]1N(C)c1ncnc2[nH]ccc12       0
32  O=C(NOCC1CC1)c1cc(Br)c(F)c(F)c1Nc1ccc(I)cc1Cl       0
33  C[C@@H]1CNc2c(sc3ccc4nc(-c5ccc(O)cc5)ccc4c23)C(=O)N1       0
34  Cc1n[nH]c2cc(Nc3ccnc(Nc4cccc(CN5CCOCC5)c4)n3)ccc12       0
35  CN1CCN(CCNc2nc3cc(Oc4ccc(NC(=O)Nc5cc(C(F)(F)F)ccc5F)cc4)ccc3[nH]2)CC1.Cl.Cl       4
